System: ATS189
Experiment: qHTS profiling for inhibitors of Plasmodium falciparum proliferation (AID 504749); note: nearly all actives have a fitted effect of over 60% in size
Settings: P. falciparum in erythrocytes, SYBR Green DNA, 72 h; series mostly up to 28.7 µM
Inconclusive results are not listed. Active and inactive are the calls of the source. Calls come from the whole dose curve; as a rule, active = well fitted inhibition curve with a large enough effect; inconclusive = small, poorly fitted or top-dose-only effect; inactive = flat fitted curve, though single readings scatter.
Outcomes you can answer with include only these: 1.0 for active, 0.0 for inactive

Example entries begin here.
compound: CNc1ccc(C(=O)CC(O)CCC(C)C2OC(=O)CC(O)CC(=O)CC(O)CC(O)CC(O)CC(O)CC3(O)CC(O)C(C(=O)OC)C(CC(O[C@@H]4OC(C)C(O)C(N)C4O)/C=C/C=C/C=C/C=C/C=C/C=C/C=C/C2C)O3)cc1 (stereo not given in full)
answer label: 0.0
--
compound: CC[C@@]1(c2ccc(N)cc2)CCC(=O)NC1=O
answer label: 0.0
--
compound: C[C@]12CC[C@H](O)CC1=CCC1C2CC[C@]2(C)C(=O)CC[C@@H]12 (stereo not given in full)
answer label: 0.0
--
compound: CNC(C)[C@@H](O)c1ccccc1 (stereo not given in full)
answer label: 0.0

Next up:
Prompt: Please let me know the test result on file for CO[C@@H](COC(N)=O)C1=C(N2CC2)C(=O)C(C)=C(N2CC2)C1=O .
Completion: 1.0

====

Assay: Cytotoxicity counterscreen for inhibitors of SARS-CoV-2 cell entry (AID 1645845); note: nearly all actives have a fitted effect of over 50% in size
Conditions: cell viability (SARS-CoV-2 entry assay cells); series mostly up to 57.1 µM
Results filed as inconclusive are left out. Calls of active or inactive are those of the source. Calls follow the shape of the full dose curve.
Outcomes you can answer with include only these: active, inactive

Example entries begin here.
molecule: CC(C)(NS(=O)(=O)c1ccc2c(Cl)cnc(N=C(N)N)c2c1)C(=O)O
answer label: inactive
//
molecule: CC(C)(C)C(=O)N1N=CC[C@H]1c1ccccc1
answer label: inactive
//
molecule: O=C(O)CCNc1cc(N2CCc3ccccc3CC2)nc(-c2cccnc2)n1
answer label: inactive
//
molecule: CCN1C(=O)N2Cc3cc(OC)cc(OC)c3[C@@H](C)C=C2C12CCN(Cc1cc(C)cc(C)c1)CC2
answer label: inactive
//
molecule: COC(=O)C1=C(C)NC(c2ncc(F)cc2F)=N[C@H]1c1ccc(F)cc1Cl
answer label: inactive

Prompt: Please let me know the test result on file for CC(C)C[C@H](NC(=O)CNC(=O)c1cc(Cl)ccc1Cl)B1OC(=O)C(CC(=O)O)(CC(=O)O)O1 .
Completion: active

Prompt: Please let me know the test result on file for COc1cc2c3c(n(CCCNCCO)c(=O)c2cc1OC)-c1cc2c(cc1C3=O)OCO2 .
Completion: active

Prompt: Please let me know the test result on file for Cc1ccc(S(=O)(=O)O)cc1 .
Completion: inactive

Prompt: Please let me know the test result on file for C=CC(=O)N1CCC(CNc2ncnc(N)c2-c2ccc(Oc3ccccc3)cc2)CC1 .
Completion: inactive

Prompt: Please let me know the test result on file for NS(=O)(=O)Oc1ccc2c3c(c(=O)oc2c1)CCCCC3 .
Completion: inactive

Prompt: Please let me know the test result on file for CO/N=C(\C(=O)N[C@@H]1C(=O)N2C(C(=O)O)=C(Cn3ccc(=N)n3CCO)CS[C@H]12)c1csc(N)n1 .
Completion: inactive

Prompt: Please let me know the test result on file for Cc1[nH]cnc1CN1CCN(C(=O)N[C@@H](CC(C)C)C(=O)O)[C@@H](Cc2ccccc2)C1=O .
Completion: inactive

Prompt: Please let me know the test result on file for COCCOC(=O)N1CCN(S(=O)(=O)c2cc(F)c(Oc3ccc(Cl)cc3)c(F)c2)C(C(=O)NO)C1 (stereo not drawn) .
Completion: active

Prompt: Please let me know the test result on file for CC(C)c1c(-c2ccccc2)nc2c(C#N)c[nH]n2c1=O .
Completion: inactive
